TARGET SYSTEM: human liver microsomal 2,3-oxidosqualene-lanosterol cyclase (OSC) (Homo sapiens)
Construct: Liver microsomes from a healthy volunteer were prepared in sodium phosphate buffer (pH 7.4); from tissue; host or cells: human liver microsomes from a healthy volunteer
Sequence (P48449 whole entry): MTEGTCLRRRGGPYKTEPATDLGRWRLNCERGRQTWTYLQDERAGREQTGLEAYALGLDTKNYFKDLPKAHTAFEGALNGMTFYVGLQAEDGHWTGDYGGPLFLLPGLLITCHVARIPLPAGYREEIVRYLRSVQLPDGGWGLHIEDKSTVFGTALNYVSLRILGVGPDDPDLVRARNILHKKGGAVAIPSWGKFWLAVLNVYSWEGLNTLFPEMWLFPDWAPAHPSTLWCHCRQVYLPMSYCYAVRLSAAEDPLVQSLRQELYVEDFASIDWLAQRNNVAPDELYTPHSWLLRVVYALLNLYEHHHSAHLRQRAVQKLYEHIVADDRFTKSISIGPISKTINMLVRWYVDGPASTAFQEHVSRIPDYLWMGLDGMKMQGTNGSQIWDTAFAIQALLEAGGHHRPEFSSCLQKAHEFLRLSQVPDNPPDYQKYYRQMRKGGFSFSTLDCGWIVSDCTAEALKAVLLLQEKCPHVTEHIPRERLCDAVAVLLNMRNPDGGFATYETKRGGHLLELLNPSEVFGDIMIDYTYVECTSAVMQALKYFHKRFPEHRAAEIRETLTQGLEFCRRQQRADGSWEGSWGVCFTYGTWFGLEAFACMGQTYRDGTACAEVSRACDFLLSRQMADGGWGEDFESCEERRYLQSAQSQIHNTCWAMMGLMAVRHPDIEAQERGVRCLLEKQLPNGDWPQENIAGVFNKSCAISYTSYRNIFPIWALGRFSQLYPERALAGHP
EXPERIMENT SUMMARY: Inhibition of human liver microsomal 2,3-oxidosqualene-lanosterol cyclase (OSC)
Type: biochemical
STUDY CONDITIONS: constant test substance concentration of 100 nM; human liver microsomes, 1 hour at 37° C.; against controls
MEASUREMENT NAME: inhibition at 0.1 µM
Give your result as the value with the unit written after it.

Past entries and their recorded results:
{"columns": ["COMPOUND", "inhibition at 0.1 µM"],
 "data": [
  ["O=C(c1ccc(Br)cc1)c1ccc(OC/C=C/CN2CCC(O)CC2)cc1", "81%"],
  ["C=CCN(C)CCCCCCOc1ccc(C(=O)c2ccc(Br)cc2)c(SC)c1", "92%"],
  ["C=CCN(C)CCCCCCOc1ccc(C(=O)c2ccc(Br)cc2)c(NC)c1", "98%"]
]}

Give measured inhibition at 0.1 µM for every item shown.
1. C=CCN(C)CCCCCCOc1ccc(C(=O)c2ccc(Br)cc2)c(O)c1
2. CN(CCCCCCOc1ccc(C(=O)c2ccc(Br)cc2)cc1)CC1CC1
3. CN(C[C@@H]1C[C@H]1COc1ccc(C(=O)c2ccc(Br)cc2)cc1F)C1CC1 (racemic) [Example 32a]

Response line:
1: 97%; 2: 83%; 3: 85%
